target: RAC-alpha serine/threonine-protein kinase [139-480,S378A,S381A,T450D,S473D] (Homo sapiens, UniProt P31749, S378A/S381A/S473D/T450D); construct: 139-480; assay: Akt Kinase Assay; conditions: pH 7.5; 22 °C
Sequence (P31749 139-480 S378A/S381A/T450D/S473D): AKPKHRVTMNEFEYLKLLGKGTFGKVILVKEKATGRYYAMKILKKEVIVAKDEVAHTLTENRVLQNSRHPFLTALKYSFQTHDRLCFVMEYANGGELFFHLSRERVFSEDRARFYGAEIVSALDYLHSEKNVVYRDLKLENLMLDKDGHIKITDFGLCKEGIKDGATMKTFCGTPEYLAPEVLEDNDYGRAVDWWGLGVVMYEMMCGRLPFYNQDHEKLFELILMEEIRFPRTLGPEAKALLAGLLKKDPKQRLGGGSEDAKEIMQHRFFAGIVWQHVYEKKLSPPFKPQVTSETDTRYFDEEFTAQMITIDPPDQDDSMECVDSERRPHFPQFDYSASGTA
Quick reference: pIC50 of the listed items.
Note on units: pIC50 is unitless, being -log10 of a concentration expressed in mol/L.

Worked examples, 4 molecules total:
>>> print(df.to_string())
                               query_smiles  measurement_type  recorded_result
0  Cc1n[nH]c2ccc(-c3cncc(OC[C@@H](N)Cc4cccc(F)c4)c3)cc12             pIC50             8.08
1  Cc1n[nH]c2ccc(-c3cncc(OC[C@@H](N)Cc4c(F)cc(F)cc4F)c3)cc12             pIC50             7.51
2  Cc1n[nH]c2ccc(-c3cncc(OC[C@@H](N)Cc4ccc(F)c(F)c4F)c3)cc12             pIC50             7.92
3  Cc1n[nH]c2ccc(-c3cncc(OC[C@@H](N)Cc4c[nH]c5ccccc45)c3)cc12             pIC50             9.80

Note: attention shifts to another entry.
Cc1n[nH]c2ccc(-c3cncc(OC[C@@H](N)Cc4c(F)cccc4F)c3)cc12 has a reported pIC50 of 7.18
